# ASSAYED SYSTEM: OsWRKY34 (Oryza sativa, UniProt Q0JBA9 1-250)
# Sequence (Q0JBA9 entry or part of it): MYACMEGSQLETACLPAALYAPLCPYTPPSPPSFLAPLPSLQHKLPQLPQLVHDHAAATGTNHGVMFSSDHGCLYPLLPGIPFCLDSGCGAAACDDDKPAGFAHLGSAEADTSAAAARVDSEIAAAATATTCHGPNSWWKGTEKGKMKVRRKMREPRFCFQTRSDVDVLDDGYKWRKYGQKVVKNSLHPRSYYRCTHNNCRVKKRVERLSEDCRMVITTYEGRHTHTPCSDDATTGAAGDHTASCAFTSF
# EXPERIMENTAL DETAILS: protein-binding microarray (RPBM); PBS, 2% BSA, 51.3 ng/ul salmon testes DNA, 50 uM zinc acetate, 200 nM TF, 25 C, 1 h; high values mean tight binding
# PROTOCOL CONDITIONS: protein: recombinant; tags: N-terminal polyhistidine and DsRed monomer fusion (pET32a); label: CyDye5-dUTP incorporated in the synthesized complementary strand; 3' TTTTT single-stranded linker to array surface; dsDNA, one strand shown
In all, about 68,000 sequences were measured (“fluorescence intensity (a.u.)”: median about 9,100, highest 2% from about 16,000 on). What follows is part of a selection rich in the highest values, with near analogues and random picks from the rest.
MEASURED METRIC: binding signal

Examples with their reported binding signal follow.
construct_sequence=TCGCTCTCGTTGGATTCGGTTTGGTTTGGTTTGGGCCATGCGGAGTCACCTAGTGCAG measured_metric="binding signal" test_result="18700 fluorescence intensity (a.u.)"
construct_sequence=TGGAGGTGGGGAGGATGCGGGAGAGGGAGGTGATGATGGGCGGAGTCACCTAGTGCAG measured_metric="binding signal" test_result="8790 fluorescence intensity (a.u.)"
construct_sequence=CGGTGAGGGGTGGACTGGGAGTGCGTGGGTGGGTGTGATGCGGAGTCACCTAGTGCAG measured_metric="binding signal" test_result="13400 fluorescence intensity (a.u.)"

query: Look up and state reported binding signal for GGGTTTTGGAGTGGTGGTGGTGGAGGATTGGAGTTGGGGTCGGAGTCACCTAGTGCAG
result: 11600 fluorescence intensity (a.u.)

query: Look up and state reported binding signal for GTGAAGCGATCTGTATTGGTGGAGGGGAGGGGAGGGGATGCGGAGTCACCTAGTGCAG
result: 24000 fluorescence intensity (a.u.)

query: Look up and state reported binding signal for TTGGTGAGGGTTTGGGTTTGGTGGTGGAGTGGAGTGGAGTCGGAGTCACCTAGTGCAG
result: 10700 fluorescence intensity (a.u.)

query: Look up and state reported binding signal for GGGGTGGGGTGGAGAGGGTGAAGCGGCGACGGTGACGATGCGGAGTCACCTAGTGCAG
result: 9870 fluorescence intensity (a.u.)

query: Look up and state reported binding signal for GTGAGGTGGGGTGGTGTGGCTTCTGCTGCTGCTGCTACTGCGGAGTCACCTAGTGCAG
result: 15100 fluorescence intensity (a.u.)

query: Look up and state reported binding signal for CTCAACCTCTCGGTCGTCGGCCTCGTCCTCCGGGCCGGCACGGAGTCACCTAGTGCAG
result: 12000 fluorescence intensity (a.u.)

* * *

# ASSAYED SYSTEM: OsWRKY34 (Oryza sativa, UniProt Q0JBA9 1-250)
# EXPERIMENTAL DETAILS: protein-binding microarray (RPBM); PBS, 2% BSA, 51.3 ng/ul salmon testes DNA, 50 uM zinc acetate, 200 nM TF, 25 C, 1 h; high values mean tight binding
# PROTOCOL CONDITIONS: protein: recombinant; tags: N-terminal polyhistidine and DsRed monomer fusion (pET32a); label: CyDye5-dUTP incorporated in the synthesized complementary strand; 3' TTTTT single-stranded linker to array surface; dsDNA, one strand shown
Over roughly 68,000 sequences, “fluorescence intensity (a.u.)” has its median near 9,100; the highest 2% begin near 16,000. The entries come from a sample that favours the highest values as a whole.
MEASURED METRIC: binding signal

Examples with their reported binding signal follow.
construct_sequence=AAGACACAGCTTCAACACGTAACCTATGCACTACACACTACGGAGTCACCTAGTGCAG assayed_system="OsWRKY34 (Oryza sativa, UniProt Q0JBA9 1-250)" measured_metric="binding signal" test_result="11700 fluorescence intensity (a.u.)"
construct_sequence=AAGGTTCGTTTCATTTTTTTTTACTTAATTAACTATTCCTCGGAGTCACCTAGTGCAG assayed_system="OsWRKY34 (Oryza sativa, UniProt Q0JBA9 1-250)" measured_metric="binding signal" test_result="8740 fluorescence intensity (a.u.)"
construct_sequence=ACGGCCTAGTTTTGGTTGAAGTTTTTGGTAGGGGTTAGTTCGGAGTCACCTAGTGCAG assayed_system="OsWRKY34 (Oryza sativa, UniProt Q0JBA9 1-250)" measured_metric="binding signal" test_result="12300 fluorescence intensity (a.u.)"
construct_sequence=TTTACCTCTCTGCCGGCCTTTGCACGCTTGTAGCCCACCACGGAGTCACCTAGTGCAG assayed_system="OsWRKY34 (Oryza sativa, UniProt Q0JBA9 1-250)" measured_metric="binding signal" test_result="9670 fluorescence intensity (a.u.)"
construct_sequence=AGGGGCGGAACTGGGTAGGCAGGGTGGGTTATATTTGAGCCGGAGTCACCTAGTGCAG assayed_system="OsWRKY34 (Oryza sativa, UniProt Q0JBA9 1-250)" measured_metric="binding signal" test_result="10500 fluorescence intensity (a.u.)"

query: Look up and state reported binding signal for GATAGGGTTAGGGATGGATAGGGTTTCCTTGAGGGTAGTTCGGAGTCACCTAGTGCAG
result: 16400 fluorescence intensity (a.u.)

query: Look up and state reported binding signal for GGATTTTCTTCCGATCTCGCTTCCACCTCGCCGCCTCGCCCGGAGTCACCTAGTGCAG
result: 9120 fluorescence intensity (a.u.)

query: Look up and state reported binding signal for CTGGTTCGGGAATTTCTGGGTGTATAGGGAAATAATTTATCGGAGTCACCTAGTGCAG
result: 8060 fluorescence intensity (a.u.)

query: Look up and state reported binding signal for GTTCTCGTCGTTCGTGTTCTTCTGCTTCGGTTTCGTGGTGCGGAGTCACCTAGTGCAG
result: 11900 fluorescence intensity (a.u.)

query: Look up and state reported binding signal for CTGTGTTTTCTATTTTTCTCTGTTTTACATCTATCTTCTTCGGAGTCACCTAGTGCAG
result: 19100 fluorescence intensity (a.u.)

* * *

# ASSAYED SYSTEM: OsWRKY34 (Oryza sativa, UniProt Q0JBA9 1-250)
# EXPERIMENTAL DETAILS: protein-binding microarray (RPBM); PBS, 2% BSA, 51.3 ng/ul salmon testes DNA, 50 uM zinc acetate, 200 nM TF, 25 C, 1 h; high values mean tight binding
# PROTOCOL CONDITIONS: protein: recombinant; tags: N-terminal polyhistidine and DsRed monomer fusion (pET32a); label: CyDye5-dUTP incorporated in the synthesized complementary strand; 3' TTTTT single-stranded linker to array surface; dsDNA, one strand shown
The full ranking holds about 68,000 sequences; the median of “fluorescence intensity (a.u.)” is about 9,100, and the highest 2% start at about 16,000. This excerpt belongs to a sample that is enriched for the highest values.
Here the recorded binding signal is given for each entry.

Examples with their reported binding signal follow.
construct_sequence=GCCAAGCCTTTTTCTTCTACTCTTTTTGGCATGGAACTCACGGAGTCACCTAGTGCAG test_result="8350 fluorescence intensity (a.u.)"
construct_sequence=GGGTGGGATTGGGATTGGGAAATGAATGAAGGGTTAGGATCGGAGTCACCTAGTGCAG test_result="16400 fluorescence intensity (a.u.)"
construct_sequence=GTATTATTGTCCCTTACATTGCTAACTCAATGTTGTATTACGGAGTCACCTAGTGCAG test_result="8130 fluorescence intensity (a.u.)"

Turning to the following sequence.
query: With OsWRKY34 (Oryza sativa, UniProt Q0JBA9 1-250) as the test system, provide measured binding signal for this sequence: GTGGGGATTGGGTAGGAGAAGGAGTGGGGAATTAGGTTAGCGGAGTCACCTAGTGCAG
result: 12200 fluorescence intensity (a.u.)

* * *

# ASSAYED SYSTEM: OsWRKY34 (Oryza sativa, UniProt Q0JBA9 1-250)
# EXPERIMENTAL DETAILS: protein-binding microarray (RPBM); PBS, 2% BSA, 51.3 ng/ul salmon testes DNA, 50 uM zinc acetate, 200 nM TF, 25 C, 1 h; high values mean tight binding
# PROTOCOL CONDITIONS: protein: recombinant; tags: N-terminal polyhistidine and DsRed monomer fusion (pET32a); label: CyDye5-dUTP incorporated in the synthesized complementary strand; 3' TTTTT single-stranded linker to array surface; dsDNA, one strand shown
The full ranking holds about 68,000 sequences; the median of “fluorescence intensity (a.u.)” is about 9,100, and the highest 2% start at about 16,000. The list comes from a sample in which the highest values are over-represented; it also holds close analogues and randomly drawn sequences.
MEASURED METRIC: binding signal

construct_sequence=TCTGTTGTGCTCTTTCGTGTGATAGATCGATTTTTTGATTCGGAGTCACCTAGTGCAG measured_metric="binding signal" test_result="10600 fluorescence intensity (a.u.)"
construct_sequence=ATTTAGTTCTCAACATACCCCTTTTCATCTTTTTGTCAGACGGAGTCACCTAGTGCAG measured_metric="binding signal" test_result="8840 fluorescence intensity (a.u.)"
construct_sequence=GCCTCGTTTCCATCTCCGCCGCGCTCGCCGCGTTCACACTCGGAGTCACCTAGTGCAG measured_metric="binding signal" test_result="11400 fluorescence intensity (a.u.)"
construct_sequence=TCCCTAAATATTTGACGCCGTTGACTTTTTTAAACATGTTCGGAGTCACCTAGTGCAG measured_metric="binding signal" test_result="26400 fluorescence intensity (a.u.)"

query: Look up and state reported binding signal for TGCTCGGACCATTCCCCGCCCACCATCGCTGCACACTTTTCGGAGTCACCTAGTGCAG
result: 17200 fluorescence intensity (a.u.)

query: Look up and state reported binding signal for AATCCATAATTAGTAAATATTTACTGTAGCACCATATTGTCGGAGTCACCTAGTGCAG
result: 9810 fluorescence intensity (a.u.)

query: Look up and state reported binding signal for ACGACCCCTCCAACACATTTCCCTCGCGTCTCGTTGCGATCGGAGTCACCTAGTGCAG
result: 8480 fluorescence intensity (a.u.)

query: Look up and state reported binding signal for TTGTGTGTGCGTTTGTGATTGCGTCGGTCGGTTTCAGTTCCGGAGTCACCTAGTGCAG
result: 17500 fluorescence intensity (a.u.)

query: Look up and state reported binding signal for TCTTTTGCTTCTGTTCTGCACCGGTCTCTCTGATGGATGTCGGAGTCACCTAGTGCAG
result: 9680 fluorescence intensity (a.u.)

query: Look up and state reported binding signal for CACATATTGATCTATTCTACTAAATTTTTTTTATGACTTTCGGAGTCACCTAGTGCAG
result: 8630 fluorescence intensity (a.u.)

query: Look up and state reported binding signal for TCCTGTGCGCCTCCCTCGAGCGTGTGACTGTGTTTGTGACCGGAGTCACCTAGTGCAG
result: 8710 fluorescence intensity (a.u.)

query: Look up and state reported binding signal for CACCTCCCCGCCCACCATTCCCACTTTCGCCCACACACACCGGAGTCACCTAGTGCAG
result: 9570 fluorescence intensity (a.u.)

query: Look up and state reported binding signal for CGCACCACCACCACCATTTCCACGCCCCTCTCTCCATTCCCGGAGTCACCTAGTGCAG
result: 8680 fluorescence intensity (a.u.)

query: Look up and state reported binding signal for TAGCTTAATATTTTTTTTCTCGCTAGCTTTATTTAAAATGCGGAGTCACCTAGTGCAG
result: 8170 fluorescence intensity (a.u.)

query: Look up and state reported binding signal for CGCTTCCTCGCCGCGCGCGCGCCCGCCATCTCCTCGCCTCCGGAGTCACCTAGTGCAG
result: 9350 fluorescence intensity (a.u.)

query: Look up and state reported binding signal for CACACTGTGCACGCCATTCTTATCTTGTCTAGCTTCATCTCGGAGTCACCTAGTGCAG
result: 16600 fluorescence intensity (a.u.)
